target: Recombinant human cathepsin A (Homo sapiens (Human)); assay: Cathepsin A inhibitory activity (Bodipy FL-labeled bradykinin substrate, microfluidic capillary electrophoresis); type: biochemical; conditions: read-out: CATHA IC50
pIC50: −log10 of the molar value.
Kindly return true if reported pIC50 is no lower than 6; return false if it is lower.

Example cases with answers are listed next.
[
  {
    "compound": "O=C(O)CC(c1cccc(-c2cccc(OC(F)(F)F)c2)c1)c1nccs1 (stereo not drawn)",
    "assigned-category": "false"
  },
  {
    "compound": "Cc1cnc(C(CC(=O)O)c2cc(Cl)cc(-c3ccncc3)c2)s1 (stereo not drawn)",
    "assigned-category": "true"
  },
  {
    "compound": "CC(C)(C)c1cccc(-c2cccc(C(CC(=O)O)c3nccs3)c2)c1 (stereo not drawn)",
    "assigned-category": "false"
  },
  {
    "compound": "COc1ccc(-c2ccc(OC)c(C(CC(=O)O)c3ncc(C)s3)c2)cc1 (stereo not drawn)",
    "assigned-category": "false"
  },
  {
    "compound": "O=C(O)CC(c1cccc(-c2cccc(F)c2Cl)c1)c1nccs1 (stereo not drawn)",
    "assigned-category": "false"
  },
  {
    "compound": "O=C(O)CC(c1cccc(-c2ccccc2)c1)c1nccs1 (stereo not drawn)",
    "assigned-category": "false"
  }
]

Okay, next one:
## Task Entry CC(C)COc1ccc(-c2cccc(C(CC(=O)O)c3nccs3)c2)cc1 (stereo not drawn) : is its pIC50 no less than 6?
## Result false

---

Below is a list of entries, each paired with its recorded pIC50 value.
target: Recombinant human cathepsin A (Homo sapiens (Human)); test: Cathepsin A inhibitory activity (Bodipy FL-labeled bradykinin substrate, microfluidic capillary electrophoresis); format: biochemical; details: Cathepsin A inhibitory activity, read-out: CATHA IC50
Lab note — pIC50 values are minus log10 of concentrations in M.

## Task So what's the measured pIC50 for this one? O=C(O)CC(c1cc(F)cc(-c2cccc(OC(F)(F)F)c2)c1)c1ncco1 (stereo not shown)
## Result 5.64

## Task Entry Cc1nnc(C(CC(=O)O)c2cccc(-c3ccccc3)c2)o1 (stereo not shown) has what pIC50?
## Result 6.03

## Task Entry Cc1nnc(C(CC(=O)O)c2cccc(-c3ccccc3C#N)c2)o1 (stereo not shown) : reported pIC50 = ?
## Result 5.32

## Task Return reported pIC50; argument: Cc1cnc(C(CC(=O)O)c2cc(Cl)cc(-c3ccccc3C(=O)N(C)C)c2)s1 (stereo not shown)
## Result 5.84

## Task So what's the measured pIC50 for this one? Cc1cnc(C(CC(=O)O)c2cc(F)cc(-c3ccccc3C(N)=O)c2)s1 (stereo not shown)
## Result 5.91

## Task Requested field: pIC50. Item: Cc1cnc(C(CC(=O)O)c2cc(F)cc(-c3ccncc3)c2)s1 (stereo not shown)
## Result 5.06

## Task What value of measured pIC50 is listed for NC(=O)c1ccccc1-c1cc(F)cc(C(CC(=O)O)c2ncco2)c1 (stereo not shown) ?
## Result 5.75

---

molecular target: Recombinant human cathepsin A (Homo sapiens (Human), UniProt P10619); experiment: Cathepsin A inhibitory activity (Bodipy FL-labeled bradykinin substrate, microfluidic capillary electrophoresis); format: biochemical; conditions: read-out: CATHA IC50
Sequence (P10619 29-326): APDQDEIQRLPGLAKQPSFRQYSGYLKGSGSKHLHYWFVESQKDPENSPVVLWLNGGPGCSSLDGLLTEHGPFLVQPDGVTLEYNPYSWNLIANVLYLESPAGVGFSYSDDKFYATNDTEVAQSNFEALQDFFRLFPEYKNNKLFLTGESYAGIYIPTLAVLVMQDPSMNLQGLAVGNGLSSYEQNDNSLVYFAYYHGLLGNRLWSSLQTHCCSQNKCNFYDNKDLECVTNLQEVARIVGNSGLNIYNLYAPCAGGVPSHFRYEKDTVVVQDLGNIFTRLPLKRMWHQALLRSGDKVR
Sequence (P10619 327-480): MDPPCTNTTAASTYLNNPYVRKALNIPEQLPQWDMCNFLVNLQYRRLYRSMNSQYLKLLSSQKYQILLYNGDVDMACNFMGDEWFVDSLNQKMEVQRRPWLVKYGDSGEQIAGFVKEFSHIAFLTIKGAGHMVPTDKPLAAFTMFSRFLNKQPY
outcome-measure: pIC50
Interpret pIC50 as the negative base-10 log of the concentration measured in mol/L.

Study these solved cases before continuing.
[
  {
    "molecule": "N#CCOc1ccc(-c2cccc(C(CC(=O)O)c3nccs3)c2)cc1 (stereo not shown)",
    "outcome-measure": "pIC50",
    "measured-result": 5.62
  },
  {
    "molecule": "O=C(O)CC(c1cccc(-c2ccccc2Cl)c1)c1nccs1 (stereo not shown)",
    "outcome-measure": "pIC50",
    "measured-result": 5.69
  }
]

## Task What measured pIC50 is associated with COc1ccc(-c2ccc(C)cc2F)cc1C(CC(=O)O)c1ncc(C)s1 (stereo not shown) on Recombinant human cathepsin A (Homo sapiens (Human), UniProt P10619)?
## Result 6.01

## Task API: value(readout=pIC50, system=Recombinant human cathepsin A (Homo sapiens (Human), UniProt P10619)) for record O=C(O)CC(c1cccc(-c2ccc(Cl)cc2)c1)c1nccs1 (stereo not shown)
## Result 5.76

## Task Lab note: need pIC50 for COc1ccc(-c2ccc(F)cc2F)cc1C(CC(=O)O)c1ncc(C)s1 (stereo not shown) on Recombinant human cathepsin A (Homo sapiens (Human), UniProt P10619), anyone have it?
## Result 5.58

## Task Record CCCOc1cccc(-c2cccc(C(CC(=O)O)c3nccs3)c2)c1 (stereo not shown) : what is its pIC50 with Recombinant human cathepsin A (Homo sapiens (Human), UniProt P10619)?
## Result 5.78

## Task Param readout= pIC50; system= Recombinant human cathepsin A (Homo sapiens (Human), UniProt P10619); entry= COc1ccc(-c2cccc(F)c2)cc1C(CC(=O)O)c1ncc(C)s1 (stereo not shown) ; returns value.
## Result 5.71

---

biological target: Recombinant human cathepsin A (Homo sapiens (Human)); assay: Cathepsin A inhibitory activity (Bodipy FL-labeled bradykinin substrate, microfluidic capillary electrophoresis); type: biochemical; conditions: read-out: CATHA IC50
hey, just use criterion met if measured IC50 is less than 3 µM, otherwise criterion not met

Look over these answered cases.
[
  {
    "molecule": "COc1ccc(-c2cccc(C(CC(=O)O)c3ncc(C)s3)c2)c(F)c1 (stereo not shown)",
    "assigned-category": "criterion met"
  },
  {
    "molecule": "COc1ccc(-c2cccc(C(F)(F)F)c2)cc1C(CC(=O)O)c1ncc(C)s1 (stereo not shown)",
    "assigned-category": "criterion not met"
  },
  {
    "molecule": "O=C(O)CC(c1cccc(-c2cc(C(F)(F)F)ccc2F)c1)c1nccs1 (stereo not shown)",
    "assigned-category": "criterion not met"
  }
]

## Task Confirm or reject: IC50 of Cc1cccc(-c2cccc(C(CC(=O)O)c3nccs3)c2)c1C (stereo not shown) lies strictly below 3 µM
## Result criterion met

## Task Decide: IC50 of COc1ccc(-c2ccccc2C)cc1C(CC(=O)O)c1ncc(C)s1 (stereo not shown) strictly below 3 µM?
## Result criterion not met

## Task Input COc1ccc(-c2ccc(OC)c(C(CC(=O)O)c3ncc(C)s3)c2)c(F)c1 (stereo not shown) ; condition: IC50 strictly below 3 µM. Does it hold?
## Result criterion not met

## Task Check if IC50 falls below 3 µM for Cc1cc(-c2cccc(C(CC(=O)O)c3nccs3)c2)n(C)n1 (stereo not shown) .
## Result criterion not met

---

Recorded IC50 by entry
target: Recombinant human cathepsin A (Homo sapiens (Human), UniProt P10619); assay: Cathepsin A inhibitory activity (Bodipy FL-labeled bradykinin substrate, microfluidic capillary electrophoresis); type: biochemical; conditions: read-out: CATHA IC50
Give the value in µM but do not write µM after it.

[
  {
    "molecule": "COc1ccc(-c2ccccc2F)cc1C(CC(=O)O)c1ncc(C)s1 (stereo not drawn) [compound 72]",
    "IC50, µM": 2.34
  },
  {
    "molecule": "COc1ccc(-c2ccc(F)cc2)cc1C(CC(=O)O)c1ncc(C)s1 (stereo not drawn) [compound 84]",
    "IC50, µM": 4.39
  },
  {
    "molecule": "COc1c(C)cc(-c2cccc(C(CC(=O)O)c3nccs3)c2)cc1C (stereo not drawn) [compound 25]",
    "IC50, µM": 1.65
  },
  {
    "molecule": "O=C(O)CC(c1cccc(-c2ccc(F)cc2)c1)c1nccs1 (stereo not drawn) [compound 14]",
    "IC50, µM": 4.3
  },
  {
    "molecule": "COc1ccc(-c2cccc(Cl)c2F)cc1C(CC(=O)O)c1ncc(C)s1 (stereo not drawn) [compound 61]",
    "IC50, µM": 0.954
  }
]

Let us move to another entry and its IC50.
## Task Tell me the measured IC50 of COc1ccc(-c2cccc(OC(F)(F)F)c2)cc1C(CC(=O)O)c1ncc(C)s1 (stereo not drawn) [compound 96] , please.
## Result 18.1

---

target: Recombinant human cathepsin A (Homo sapiens (Human)); assay: Cathepsin A inhibitory activity (Bodipy FL-labeled bradykinin substrate, microfluidic capillary electrophoresis); assay type: biochemical; conditions: read-out: CATHA IC50
Below, each entry is listed alongside its reported IC50.
Numbers only; they are read as nM.

[
  {
    "molecule": "O=C(O)CC(c1cccc(-c2cccc(Cl)c2)c1)c1nccs1 (centres unmarked) [compound 5]",
    "system-tested": "Recombinant human cathepsin A (Homo sapiens (Human))",
    "IC50 (nM)": 967
  }
]

## Task Item COc1ccc(C=O)c(-c2cccc(C(CC(=O)O)c3nccs3)c2)c1 (centres unmarked) [compound 37] with Recombinant human cathepsin A (Homo sapiens (Human)) - IC50?
## Result 3200

## Task Give recorded IC50 with Recombinant human cathepsin A (Homo sapiens (Human)) for the following molecule: COc1ccc(-c2cccc(C)c2F)cc1C(CC(=O)O)c1ncc(C)s1 (centres unmarked) [compound 73]
## Result 2420

## Task # value lookup — system Recombinant human cathepsin A (Homo sapiens (Human)), readout IC50, item COc1cccc(-c2cccc(C(CC(=O)O)c3ncc(C)s3)c2)c1F (centres unmarked) [compound 51]
## Result 397

All values here come from patent US9199947B2.
